# System: NCI-H460
# PROCEDURE TEXT: NCI tumour cell line growth inhibition, 48 h
Activity calls are given as the source filed them. Cut-off read from the data, not from the text of the source: active = GI50 up to about 1.1 µM and inactive = higher.
MEASUREMENT NAME: GI50

COc1cc(OC)c(C2c3cc4c(cc3OC(N3CCCC3)C2C)OCO4)c(OC)c1 (stereo not given) | 13.2 µM (inactive)
CC(=O)Oc1cccc2c1C(=O)CCCC2 | > 100 µM (inactive)
C[Si](C)(C)/C(Br)=C\CCN1C(=O)CCC1=O | > 100 µM (inactive)
N#C/C(=C\c1cn(Cc2ccccc2)c2ccccc12)c1nn(-c2ccccc2)c(N)c1C#N | 12 µM (inactive)
O=S(=O)(O)c1ccc2cc(/N=N/c3c(O)ccc4ccccc34)ccc2c1 | > 100 µM (inactive)

Record GI50 for all entries; do not skip any.
1. C=C1C(=O)O[C@@H]2O[C@@]3(C)CC[C@H]4[C@H](C)CC[C@@H]1[C@@]24O3
2. CCCSS[C@H]1NC(=O)[C@H]1NC(=O)COc1ccccc1
3. O=c1c(-c2ccccc2)c(SCCN2CCOCC2)n(-c2ccccc2)c(=S)n1-c1ccccc1
4. CCNC(=O)c1cc(Cl)ccc1NC(=O)C12CC3CC(CC(C3)C1)C2
5. CN(C)CC/[N+]([O-])=C(/c1ccccc1)C12CC3CC(CC(C3)C1)C2

Outgoing:
1. 22.3 µM (inactive)
2. 17.6 µM (inactive)
3. > 100 µM (inactive)
4. 34.3 µM (inactive)
5. 18.4 µM (inactive)
